Just for reference, patent US11242337B2 is where these values come from.

System: human ileum monolayer culture
Assay: Sustained inhibition of apical acid secretion in human organoid monolayer cell cultures (ileum)
Assay type: cell-based
Settings: Homo sapiens, 48 h; 1 μM apical, dosed day 6, apical media pH day 8, vs DMSO
Experimental: Basal media (BM) consisted of advanced DMEM/F12 containing 10 mM HEPES Invitrogen, 15630-080), 1:100 Glutamax (Invitrogen, 35050-061), and 1:100 penicillin/streptomycin (Invitrogen, 15140-122). Supplemented basal media (SBM) contained 1:100 N2 (Invitrogen, 17502-048), 1:50 B27 (Invitrogen, 12587-010), 1 mM N-acetylcysteine (Sigma, A9165), and 10 nM [Leu15]-gastrin I (Sigma, G9145). […]
Can you tell me inhibition at 1 µM for the items I'm about to list?

# input Output measured inhibition at 1 µM for this item: "N#Cc1cc(Cl)cc2c1C[C@H](N1CCCNCC1)[C@H]2Oc1ccc(S(=O)(=O)N[C@H]2CCN(CCOCCNC(=O)NCCCCNC(=O)NCCOCCN3CC[C@H](NS(=O)(=O)c4ccc(O[C@H]5c6cc(Cl)cc(C#N)c6C[C@@H]5N5CCCNCC5)cc4)C3)C2)cc1"
# output < 50%

# input // Input: "Cc1cc(S(=O)(=O)NCCOCCOCCNC(=O)NCCCCNC(=O)NCCOCCOCCNS(=O)(=O)c2ccc(O[C@H]3c4cc(Cl)cc(C#N)c4C[C@@H]3N3CCNCC3)c(C)c2)ccc1O[C@H]1c2cc(Cl)cc(C#N)c2C[C@@H]1N1CCNCC1" . Output its inhibition at 1 µM only.
# output > 70%

# input Return the recorded inhibition at 1 µM value; entry: "Cc1cc(S(=O)(=O)N2CC[C@@H](COc3ccnc(CNC(=O)NCCCCNC(=O)NCc4cc(OC[C@@H]5CCN(S(=O)(=O)c6ccc(O[C@H]7c8cc(Cl)cc(Cl)c8C[C@@H]7N(C)C)c(C)c6)C5)ccn4)c3)C2)ccc1O[C@H]1c2cc(Cl)cc(Cl)c2C[C@@H]1N(C)C"
# output > 70%

# input Fill in inhibition at 1 µM for record "N#Cc1cc(Cl)cc2c1C[C@H](N1CCNCC1)[C@H]2Oc1ccc(S(=O)(=O)NC2CCN(CCOCCNC(=O)NCCCCNC(=O)NCCOCCN3CCC(NS(=O)(=O)c4ccc(O[C@H]5c6cc(Cl)cc(C#N)c6C[C@@H]5N5CCNCC5)cc4)CC3)CC2)cc1"
# output > 70%

# input Look up and report measured inhibition at 1 µM for this entry: "N#Cc1cc(Cl)cc2c1C[C@H](N1CCNCC1)[C@H]2Oc1ccc(S(=O)(=O)N[C@H]2CCN(CCOCCNC(=O)NCCCCNC(=O)NCCOCCN3CC[C@H](NS(=O)(=O)c4ccc(O[C@H]5c6cc(Cl)cc(C#N)c6C[C@@H]5N5CCNCC5)c(F)c4)C3)C2)cc1F"
# output > 70%
